# Test system: ATP;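 also: ATP exposure 15 min at 22 °C before imaging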
# test.name: switch fluorescence ratio, 500 uM ATP over buffer (Cy3 cluster intensity, sum of 5 cycles each) (fold (ratio)); higher = stronger signal-on switching upon ATP binding; sequences stand for … in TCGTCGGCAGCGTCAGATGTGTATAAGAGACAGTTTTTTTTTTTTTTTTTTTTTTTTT…TC
# condition: aptamer strand: ATP DNA aptamer (quencher-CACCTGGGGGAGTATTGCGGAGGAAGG + anchor), 100 nM annealed; ATP concentration: 500 uM
# switch fluorescence ratio per record follows
measure: switch fluorescence ratio

sequence_record=CTAATTTTTG tgt=ATP measurement=1
sequence_record=TCTAAAGCTG tgt=ATP measurement=1
sequence_record=GCTGCTTGGG tgt=ATP measurement=1.01
sequence_record=AATCAAATTA tgt=ATP measurement=0.985
sequence_record=TTATTCCCGT tgt=ATP measurement=0.985
sequence_record=TGAAGACTGT tgt=ATP measurement=0.988
sequence_record=TCCTGATTGA tgt=ATP measurement=0.984
sequence_record=TCGGCGTATC tgt=ATP measurement=0.979

----------
# Test system: ATP;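 also: ATP exposure 15 min at 22 °C before imaging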
# test.name: switch fluorescence ratio, 500 uM ATP over buffer (Cy3 cluster intensity, sum of 5 cycles each) (fold (ratio)); higher = stronger signal-on switching upon ATP binding; sequences stand for … in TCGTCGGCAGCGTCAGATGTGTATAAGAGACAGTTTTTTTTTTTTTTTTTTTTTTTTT…TC
# condition: aptamer strand: ATP DNA aptamer (quencher-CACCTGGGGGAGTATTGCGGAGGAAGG + anchor), 100 nM annealed; ATP concentration: 500 uM
measure: switch fluorescence ratio

sequence_record=GATGTACCCC tgt=ATP measurement=1.11
sequence_record=AGCGAGTGTG tgt=ATP measurement=1
sequence_record=GCGCAGTACG tgt=ATP measurement=4.91
sequence_record=GAAGAGGGAT tgt=ATP measurement=0.981
sequence_record=TAATTGGGGC tgt=ATP measurement=1.02

----------
# Test system: ATP;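 also: ATP exposure 15 min at 22 °C before imaging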
# test.name: switch fluorescence ratio, 500 uM ATP over buffer (Cy3 cluster intensity, sum of 5 cycles each) (fold (ratio)); higher = stronger signal-on switching upon ATP binding; sequences stand for … in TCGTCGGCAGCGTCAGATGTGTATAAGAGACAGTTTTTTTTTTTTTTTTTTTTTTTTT…TC
# condition: aptamer strand: ATP DNA aptamer (quencher-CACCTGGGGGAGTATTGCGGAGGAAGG + anchor), 100 nM annealed; ATP concentration: 500 uM
# switch fluorescence ratio per record follows
measure: switch fluorescence ratio

sequence_record=ACCGGATCGT measurement=0.983
sequence_record=ATGAATTCTC measurement=1.01
sequence_record=GGGTATATTT measurement=1
sequence_record=AAGCGGTCGC measurement=0.99
sequence_record=TAACGGAGT measurement=1.01
sequence_record=GTTTAGAGGA measurement=1
sequence_record=AGTGATATTA measurement=1.01
sequence_record=CAGGATTGGG measurement=0.973
sequence_record=CCAGTGTAGA measurement=1.01
sequence_record=TTGTATGGCA measurement=0.973
sequence_record=TGGTAAAAGG measurement=0.991
sequence_record=AGGAGCGTCG measurement=1.01
sequence_record=GGGCCGGTTG measurement=0.995
sequence_record=ATGTTATTTT measurement=1.01
sequence_record=AGTGTTCGGG measurement=1
sequence_record=CGTAGTAGGA measurement=1.04
sequence_record=GAAGTCGAAT measurement=1.01
sequence_record=AGAAAGGGCG measurement=0.94
sequence_record=TTCGGCGGGC measurement=1
sequence_record=CTGAAAGGGC measurement=1.03
sequence_record=ACTCGAGGGA measurement=1.01
sequence_record=ACTCAAACCA measurement=1.14
sequence_record=TTGTGGAAAC measurement=1.02
sequence_record=AGGAAGGGGT measurement=0.979
sequence_record=CGATATGGGT measurement=0.98
sequence_record=TTGAGTGTTA measurement=1.01
sequence_record=AAAGTGTACG measurement=0.999
sequence_record=ATTTGTTGG measurement=1.03
sequence_record=CATGAATATT measurement=0.99
sequence_record=CCGTTGAGGG measurement=1.01
sequence_record=TCGTAGAAGG measurement=0.991
sequence_record=TTTAGGAGGA measurement=0.997
sequence_record=GGGGGTACTG measurement=0.965
sequence_record=TGTTTTACGA measurement=1.07
sequence_record=GCTGGAATAT measurement=1
sequence_record=AAAAGTTTGT measurement=1
sequence_record=TAGCGGCGT measurement=0.994
sequence_record=GGTGGCGGAT measurement=1.07
sequence_record=CTTATTTGGG measurement=0.997
sequence_record=GGGGGAAATA measurement=0.981
sequence_record=TACGGGGGG measurement=1.02
sequence_record=GCTAGTGCTA measurement=0.996
sequence_record=GGTTAGGCGG measurement=0.954
sequence_record=ATGCGGGCCA measurement=1.01
sequence_record=GGCGCTGGAT measurement=1.02
sequence_record=CGTGTTTTCT measurement=0.99
sequence_record=AGTTTAATGT measurement=1
sequence_record=TGGGGGATCT measurement=1
sequence_record=AGGGTCTACG measurement=0.997
sequence_record=TTTTGAGGAG measurement=0.981
sequence_record=AGGTGGGCGC measurement=0.94
sequence_record=GGTTTACGTC measurement=1
sequence_record=TACGGGCTTA measurement=1.01
sequence_record=TCGGGTACTG measurement=0.979
sequence_record=TTCCTGGGTT measurement=1
sequence_record=ACCCAGACGC measurement=1.35
sequence_record=TTGGGAAACT measurement=1.15
sequence_record=ACTTTAATTG measurement=1
sequence_record=GGACTCAGAA measurement=0.987
sequence_record=TCTAAATAGC measurement=1.05

----------
# Test system: ATP;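 also: ATP exposure 15 min at 22 °C before imaging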
# test.name: switch fluorescence ratio, 500 uM ATP over buffer (Cy3 cluster intensity, sum of 5 cycles each) (fold (ratio)); higher = stronger signal-on switching upon ATP binding; sequences stand for … in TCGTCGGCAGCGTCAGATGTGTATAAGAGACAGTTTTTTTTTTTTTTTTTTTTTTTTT…TC
# condition: aptamer strand: ATP DNA aptamer (quencher-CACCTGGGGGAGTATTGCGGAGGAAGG + anchor), 100 nM annealed; ATP concentration: 500 uM
measure: switch fluorescence ratio

sequence_record=GGCTTATAGG tgt=ATP measure="switch fluorescence ratio" measurement=1.02
sequence_record=TCTGAGGGGG tgt=ATP measure="switch fluorescence ratio" measurement=1
sequence_record=ATTGTCGTTC tgt=ATP measure="switch fluorescence ratio" measurement=1.03
sequence_record=AACAAGTATG tgt=ATP measure="switch fluorescence ratio" measurement=1
sequence_record=AATTTAGGAT tgt=ATP measure="switch fluorescence ratio" measurement=0.989
sequence_record=GGTAGGGGTC tgt=ATP measure="switch fluorescence ratio" measurement=1.01
sequence_record=GAAAGGGAAA tgt=ATP measure="switch fluorescence ratio" measurement=1.03
sequence_record=AAGTGGCCGT tgt=ATP measure="switch fluorescence ratio" measurement=1.01
sequence_record=ACATTTGCCC tgt=ATP measure="switch fluorescence ratio" measurement=1.07
sequence_record=TTTGCTTCGT tgt=ATP measure="switch fluorescence ratio" measurement=1.04
sequence_record=ATACTGGAAA tgt=ATP measure="switch fluorescence ratio" measurement=1.01
sequence_record=TGAGTATGGG tgt=ATP measure="switch fluorescence ratio" measurement=0.973
sequence_record=AATAGTTGGA tgt=ATP measure="switch fluorescence ratio" measurement=0.985
sequence_record=GGCCCCTTAG tgt=ATP measure="switch fluorescence ratio" measurement=1.02
sequence_record=TCACGGACAG tgt=ATP measure="switch fluorescence ratio" measurement=1.3
sequence_record=ATAGAAAAAT tgt=ATP measure="switch fluorescence ratio" measurement=1
sequence_record=TTGTTTATGT tgt=ATP measure="switch fluorescence ratio" measurement=0.999
sequence_record=CACTATAACT tgt=ATP measure="switch fluorescence ratio" measurement=1.07
sequence_record=CAATGTTGAT tgt=ATP measure="switch fluorescence ratio" measurement=1.01
sequence_record=AGCACTGCTG tgt=ATP measure="switch fluorescence ratio" measurement=1.01
sequence_record=TTTTTCTAAT tgt=ATP measure="switch fluorescence ratio" measurement=1.03
sequence_record=GGGGGGTTAG tgt=ATP measure="switch fluorescence ratio" measurement=0.991
sequence_record=TCTCCATTGT tgt=ATP measure="switch fluorescence ratio" measurement=1.04
sequence_record=GATTTTCCTT tgt=ATP measure="switch fluorescence ratio" measurement=1.01
sequence_record=AACTGAGACT tgt=ATP measure="switch fluorescence ratio" measurement=1.02
sequence_record=GCAGCAGACG tgt=ATP measure="switch fluorescence ratio" measurement=1.2
sequence_record=GGGGGCCATA tgt=ATP measure="switch fluorescence ratio" measurement=1.14
sequence_record=GGGTTGTATG tgt=ATP measure="switch fluorescence ratio" measurement=0.997
sequence_record=GTGTTGTTGG tgt=ATP measure="switch fluorescence ratio" measurement=0.986
sequence_record=AGCTTGTGTG tgt=ATP measure="switch fluorescence ratio" measurement=1.01
sequence_record=CAAGATTCCA tgt=ATP measure="switch fluorescence ratio" measurement=1.02
sequence_record=ACCGAATAAT tgt=ATP measure="switch fluorescence ratio" measurement=1.03
sequence_record=GGGGGAGATT tgt=ATP measure="switch fluorescence ratio" measurement=0.977
sequence_record=GCGCATTGTT tgt=ATP measure="switch fluorescence ratio" measurement=1.03
sequence_record=TTTGTACGGG tgt=ATP measure="switch fluorescence ratio" measurement=0.999
sequence_record=CGTTGATGTG tgt=ATP measure="switch fluorescence ratio" measurement=0.99
sequence_record=CATTTTTTT tgt=ATP measure="switch fluorescence ratio" measurement=0.99
sequence_record=TGGGGAATCG tgt=ATP measure="switch fluorescence ratio" measurement=1.01
sequence_record=GGTCTGAAGT tgt=ATP measure="switch fluorescence ratio" measurement=1.01
sequence_record=TTGAAAGTGA tgt=ATP measure="switch fluorescence ratio" measurement=1.13
sequence_record=TGATGGTTTA tgt=ATP measure="switch fluorescence ratio" measurement=0.996
sequence_record=GATTTATCGC tgt=ATP measure="switch fluorescence ratio" measurement=1
sequence_record=AACGAGACCA tgt=ATP measure="switch fluorescence ratio" measurement=1.07
sequence_record=AAGGGAATAC tgt=ATP measure="switch fluorescence ratio" measurement=2.6
sequence_record=GGGGTATCCA tgt=ATP measure="switch fluorescence ratio" measurement=1.03
sequence_record=CGCCTGTTAG tgt=ATP measure="switch fluorescence ratio" measurement=0.99
sequence_record=TTTAATATAG tgt=ATP measure="switch fluorescence ratio" measurement=1
sequence_record=GATATCCGAG tgt=ATP measure="switch fluorescence ratio" measurement=1.05
sequence_record=TCCATAAGGG tgt=ATP measure="switch fluorescence ratio" measurement=1.01
sequence_record=GCGTCGGGGG tgt=ATP measure="switch fluorescence ratio" measurement=1.01
sequence_record=TATCGGGGGG tgt=ATP measure="switch fluorescence ratio" measurement=0.996
